molecular target: T1, MUC1 60-mer peptide NH2-(…)3-COOH (biotinylated in the ELISAs and selections); test: ELISA, soluble Fab, biotinylated MUC1 60-mer; relative signal
T1 construct: also called biotinylated MUC1 60-mer
T1 sequence (peptide, as listed by the source): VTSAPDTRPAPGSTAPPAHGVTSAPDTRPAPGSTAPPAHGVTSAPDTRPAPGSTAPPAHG
MEASURED_METRIC: binding result

BINDER | MEASURED_METRIC | READOUT_VALUE
3F3 (Fab, V domains shown, PH1 Fab variant) VH: QVQLVQSGGGLVQPGGSLRLSCAASGFTFRSNAMGWVRQAPGKGLEWVSGISGSGGSTYYADSVKGRFTISRDNSKNTLYLQMNSLRAEDTAVYYCAKHTGRGVWDPIDYWGQGTLVTVSS VL: EIVLTQSPLSLPVTPGEPASISCRSSQSLLHSNGYTYLDWYLQKPGQSPQLLIYSGSHRASGVPDRFSGSVSGTDFTLRISRVEAEDVGVYYCMQGLQSPFTFGPGTKVDIKR | binding result | binds
3G1 (Fab, V domains shown, PH1 Fab variant) VH: QVQLVQSGGGLVQPGGSLRLSCAASGFTFRSNAMGWVRQAPGKGLEWVSGISGSGGSTYYADSVKGRFTISRDNSKNTLYLQMNSLRAEDTAVYYCAKHTGGGVWDPIDDWGQGTLVTVSS VL: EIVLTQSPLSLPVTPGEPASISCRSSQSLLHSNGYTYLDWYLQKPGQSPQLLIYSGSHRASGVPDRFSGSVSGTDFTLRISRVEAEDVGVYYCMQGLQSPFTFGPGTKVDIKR | binding result | binds
11C1 (Fab, V domains shown, PH1 Fab variant) VH: QVQLVQSGGGLVQPGGSLRLSCAASGFTFRSNAMGWVRQAPGKGLEWVSGISGSGGSTYYADSVKGRFTISRDNSKNTLYLQMNSLRAEDTAVYYCAKHTGEGVWDPIKYWGQGTLVTVSS VL: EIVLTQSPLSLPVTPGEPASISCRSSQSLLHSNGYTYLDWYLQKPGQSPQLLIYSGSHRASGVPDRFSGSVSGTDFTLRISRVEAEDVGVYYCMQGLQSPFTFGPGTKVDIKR | binding result | binds
